Target: hTLR9 (Homo sapiens, UniProt Q9NR96)
Construct: expressed in transfected cells; host or cells: HEK-Blue-hTLR9 cells (HEK293)
Assay: hTLR9 antagonism (SEAP inhibition assay) in HEK-Blue-hTLR9 (HEK293) cells, ODN-2006 stimulated
Assay type: cell-based
Conditions: HEK-Blue hTLR9, 1 μM; SEAP, HEK-Blue-hTLR9 cells; read-out: hTLR9 inhibitory activity (% at 1 μM)
metric: inhibition at 1 µM (%)

Worked cases, inhibition at 1 µM given:
CC(C)N1CCN(Cc2ccc(-c3nccc4[nH]c(CN5CCOCC5)cc34)cc2)CC1: 96.5
CCN1CCN(c2ccc(-c3nc(C)c(C)c4[nH]c(CCN5CCOCC5)cc34)cc2)CC1: 93.7
Cc1cc2[nH]c(CCCN3CCOCC3)cc2c(-c2ccc(N3CCN(C(C)C)CC3)cc2)n1: 94.8
CC(C)N1CCC(c2ccc(-c3nccc4[nH]c(CN5CCOCC5)cc34)cn2)CC1: 73
Cc1cc2c(cc(CCN3CCOCC3)n2C)c(C2CCC(N3CCN(C(C)C)CC3)CC2)n1 (centres unmarked): 89.9
Cc1nc(-c2ccc(N3CCN(C(C)C)CC3)cc2)c2cc(CN3CCOCC3)[nH]c2c1C: 96.7

1: Cc1nc(-c2ccc(N3CCN(C(C)C)CC3)cc2)c2cc(CCN3CCOCC3)[nH]c2c1C
2: CC1(O)CCN(c2ccc(-c3nccc4[nH]c(CN5CCOCC5)cc34)cc2)CC1
Inquiry: Which entry has a larger number for inhibition at 1 µM, 1 or 2 ? Please indicate the selected item by its label.
Reply text: 1
(1: 79.7%, 2: 29%)

A: CC(C)N1CCN(c2ccc(-c3nccc4[nH]c(CN5CCC6(CC5)CC(O)C6)cc34)cc2)CC1
B: c1cc2[nH]c(CN3CCOCC3)cc2c(-c2ccc(N3CCOCC3)cc2)n1
Inquiry: Which entry has a larger number for inhibition at 1 µM, A or B ? Please indicate the selected item by its label.
Reply text: A

----------
Target: mTLR9 (Mus musculus, UniProt Q9EQU3)
Construct: Splenocytes isolated from male C57/BL6 mice; from tissue; host or cells: splenocytes from the spleen of male C57BL/6 mice
Sequence (Q9EQU3 26-1032): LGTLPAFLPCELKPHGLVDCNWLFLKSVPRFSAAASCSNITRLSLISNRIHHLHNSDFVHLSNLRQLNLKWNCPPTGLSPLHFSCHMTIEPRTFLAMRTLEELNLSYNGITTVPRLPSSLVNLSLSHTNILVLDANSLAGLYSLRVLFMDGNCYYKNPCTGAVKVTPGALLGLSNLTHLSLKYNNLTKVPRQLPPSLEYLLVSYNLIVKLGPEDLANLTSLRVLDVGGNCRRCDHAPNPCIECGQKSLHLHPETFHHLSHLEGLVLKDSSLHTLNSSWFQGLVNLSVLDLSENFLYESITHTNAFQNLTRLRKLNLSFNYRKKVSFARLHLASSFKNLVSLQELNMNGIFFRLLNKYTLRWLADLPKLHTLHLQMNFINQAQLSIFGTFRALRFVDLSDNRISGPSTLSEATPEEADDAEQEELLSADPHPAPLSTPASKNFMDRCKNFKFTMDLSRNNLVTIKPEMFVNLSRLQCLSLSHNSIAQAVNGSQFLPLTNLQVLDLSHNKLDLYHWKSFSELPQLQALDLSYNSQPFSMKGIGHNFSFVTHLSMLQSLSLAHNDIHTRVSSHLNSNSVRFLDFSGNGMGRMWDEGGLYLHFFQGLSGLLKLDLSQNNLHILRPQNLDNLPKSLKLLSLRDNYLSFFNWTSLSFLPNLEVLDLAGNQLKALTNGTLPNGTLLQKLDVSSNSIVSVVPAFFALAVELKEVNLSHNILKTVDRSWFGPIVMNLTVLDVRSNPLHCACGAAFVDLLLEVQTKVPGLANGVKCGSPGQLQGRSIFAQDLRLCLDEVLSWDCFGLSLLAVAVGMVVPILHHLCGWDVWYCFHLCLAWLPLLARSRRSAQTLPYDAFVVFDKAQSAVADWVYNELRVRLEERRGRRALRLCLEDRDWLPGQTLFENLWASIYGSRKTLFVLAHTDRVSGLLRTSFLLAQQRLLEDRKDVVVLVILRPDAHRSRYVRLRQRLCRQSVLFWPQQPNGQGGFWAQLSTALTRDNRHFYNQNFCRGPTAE
Assay: mTLR9 antagonism (IL-6 and TNF-α release assay) in mouse splenocytes, CpG ODN-2006 stimulated
Type: cell-based
Details: 1 μM; TNF-α release, mouse splenocytes; read-out: mTLR9 inhibitory activity (% at 1 μM), TNF-α
metric: inhibition at 1 µM (%)

c1cc2[nH]c(CN3CCOCC3)cc2c(-c2ccc(N3CCN(C4COC4)CC3)cc2)n1 [Example A81]: 20
CC(C)N1CCN(c2ccc(-c3nccc4[nH]c(CN5CCC(F)CC5)cc34)cc2)CC1 [Example A24]: 100

A: Cc1cc2[nH]c(CCN3CCCCC3)cc2c(-c2ccc(N3CCN(C(C)C)CC3)cc2)n1 [Example B5]
B: c1cc2[nH]c(CN3CCOCC3)cc2c(-c2ccc(N3CCNCC3)cc2)n1 [Example A42]
Inquiry: // returns A or B , whichever has the lower inhibition at 1 µM Please indicate the selected item by its label.
Reply text: B
(B: 41%, A: 100%)

----------
Biological target: hTLR9 (Homo sapiens, UniProt Q9NR96)
Construct: expressed in transfected cells; host or cells: HEK-Blue-hTLR9 cells (HEK293)
Sequence (Q9NR96 26-1032): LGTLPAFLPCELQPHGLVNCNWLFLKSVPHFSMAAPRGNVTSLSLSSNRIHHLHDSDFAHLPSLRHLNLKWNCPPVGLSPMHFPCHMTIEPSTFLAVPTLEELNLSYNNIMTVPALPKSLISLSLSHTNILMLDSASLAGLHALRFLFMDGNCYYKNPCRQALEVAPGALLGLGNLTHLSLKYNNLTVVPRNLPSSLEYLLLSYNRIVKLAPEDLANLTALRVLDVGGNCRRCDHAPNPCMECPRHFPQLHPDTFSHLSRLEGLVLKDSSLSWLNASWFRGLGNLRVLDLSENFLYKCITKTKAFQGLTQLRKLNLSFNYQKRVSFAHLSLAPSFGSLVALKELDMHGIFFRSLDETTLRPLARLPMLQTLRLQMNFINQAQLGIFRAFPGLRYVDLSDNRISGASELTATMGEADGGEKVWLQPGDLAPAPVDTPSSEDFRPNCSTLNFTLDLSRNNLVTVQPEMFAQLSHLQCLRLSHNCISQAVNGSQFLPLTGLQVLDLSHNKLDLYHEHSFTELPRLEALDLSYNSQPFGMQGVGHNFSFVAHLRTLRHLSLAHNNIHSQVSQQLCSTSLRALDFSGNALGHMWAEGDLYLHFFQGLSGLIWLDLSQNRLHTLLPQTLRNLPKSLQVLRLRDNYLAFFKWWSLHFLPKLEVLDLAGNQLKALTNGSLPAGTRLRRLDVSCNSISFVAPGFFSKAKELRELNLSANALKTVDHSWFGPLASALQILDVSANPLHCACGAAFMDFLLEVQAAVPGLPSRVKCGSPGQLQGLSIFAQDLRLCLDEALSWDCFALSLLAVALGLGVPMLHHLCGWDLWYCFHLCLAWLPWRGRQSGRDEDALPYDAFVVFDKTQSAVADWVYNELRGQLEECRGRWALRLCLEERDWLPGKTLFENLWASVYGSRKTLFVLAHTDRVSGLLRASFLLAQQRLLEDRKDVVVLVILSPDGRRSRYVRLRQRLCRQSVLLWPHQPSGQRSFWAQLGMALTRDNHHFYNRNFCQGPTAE
Test: hTLR9 antagonism (SEAP inhibition assay) in HEK-Blue-hTLR9 (HEK293) cells, ODN-2006 stimulated
Format: cell-based
Details: HEK-Blue hTLR9, 1 μM; SEAP, HEK-Blue-hTLR9 cells; read-out: hTLR9 inhibitory activity (% at 1 μM)
metric: inhibition at 1 µM (%)

CC(C)N1CCN(c2ncc(-c3nccc4[nH]c(CN5CCOCC5)cc34)s2)CC1 [Example A58]: 98
Cc1cc2[nH]c(CCN3CCOCC3)cc2c(-c2ccc(N3CCN(C(C)C)CC3)cc2)n1 [Example B3]: 100
Cc1nc(-c2ccc(N3CCN(C(C)C)CC3)cc2)c2cc(CCN3CCCCC3)[nH]c2c1C [Example B9]: 95.2
Cc1nc(-c2ccc(N3CCN(C)CC3)cc2)c2cc(CCN3CCOCC3)[nH]c2c1C [Example B7]: 81.6

I: CC(C)N1CCN(c2ccc(-c3nccc4c3cc(CN3CCOCC3)n4C)cc2)CC1 [Example A8]
II: CC(C)N1CCN(c2ccc(-c3nc(C(F)(F)F)cc4[nH]c(CN5CCOCC5)cc34)cc2)CC1 [Example A32]
Inquiry: Which entry has a larger number for inhibition at 1 µM, I or II ? Please indicate the selected item by its label.
Reply text: I

Data provenance is patent US9643967B2.
